Exercise: state measured melting point for each of the compounds provided.

Enquiry: Please give the measured melting point for this compound: N#CC(c1c(-c2ccccc2)[nH]c2ccccc12)c1c(-c2ccccc2)[nH]c2ccccc12
Return: 112 to 117.9 °C

Enquiry: Please give the measured melting point for this compound: Cn1cc(C(C#N)c2cn(C)c3ccccc23)c2ccccc21
Return: 70.3 to 74.6 °C

Enquiry: Please give the measured melting point for this compound: Cc1ccc2c(C(C#N)c3c[nH]c4cc(C)ccc34)c[nH]c2c1
Return: 178.4 to 183.7 °C

Enquiry: Please give the measured melting point for this compound: Cn1cc(C(C#N)c2cn(C)c3ccc(Br)cc23)c2cc(Br)ccc21
Return: 177.7 to 181.7 °C

Enquiry: Please give the measured melting point for this compound: N#CC(c1c[nH]c2cc(Cl)ccc12)c1c[nH]c2cc(Cl)ccc12
Return: 175.6 to 178.2 °C

Enquiry: Please give the measured melting point for this compound: Cc1cccc2c(C(C#N)c3c[nH]c4c(C)cccc34)c[nH]c12
Return: 214.1 to 219.4 °C

Enquiry: Please give the measured melting point for this compound: Cc1ccc2[nH]c(C)c(C(C#N)c3c(C)[nH]c4ccc(C)cc34)c2c1
Return: 231.2 to 236.4 °C

Enquiry: Please give the measured melting point for this compound: CCOC(=O)CNc1ccc(C(C#N)c2ccc(NCC(=O)OCC)cc2)cc1
Return: 87.5 to 93.4 °C

Enquiry: Please give the measured melting point for this compound: N#CC(c1c[nH]c2ccc(Cl)cc12)c1c[nH]c2ccc(Cl)cc12
Return: 168 to 173.4 °C

Enquiry: Please give the measured melting point for this compound: N#CC(c1c[nH]c2ccc(F)cc12)c1c[nH]c2ccc(F)cc12
Return: 182.7 to 187.5 °C

Enquiry: Please give the measured melting point for this compound: COC(=O)c1ccc2[nH]cc(C(C#N)c3c[nH]c4ccc(C(=O)OC)cc34)c2c1
Return: 259.6 to 266.9 °C

Enquiry: Please give the measured melting point for this compound: N#CC(c1c[nH]c2cccc(Cl)c12)c1c[nH]c2cccc(Cl)c12
Return: 230 to 235.8 °C

Enquiry: Please give the measured melting point for this compound: N#CC(c1c[nH]c2c(Cl)cccc12)c1c[nH]c2c(Cl)cccc12
Return: 162.2 to 168.8 °C

Enquiry: Please give the measured melting point for this compound: N#CC(c1c[nH]c2ccccc12)c1c[nH]c2ccccc12
Return: 173.9 to 178.3 °C

Enquiry: Please give the measured melting point for this compound: Cc1[nH]c2ccccc2c1C(C#N)c1c(C)[nH]c2ccccc12
Return: 231.2 to 236.6 °C

Enquiry: Please give the measured melting point for this compound: Cc1cccc2[nH]cc(C(C#N)c3c[nH]c4cccc(C)c34)c12
Return: 246.2 to 250.1 °C

Enquiry: Please give the measured melting point for this compound: Cc1ccc2[nH]cc(C(C#N)c3c[nH]c4ccc(C)cc34)c2c1
Return: 205.1 to 210.1 °C

Enquiry: Please give the measured melting point for this compound: COc1ccc2[nH]cc(C(C#N)c3c[nH]c4ccc(OC)cc34)c2c1
Return: 118.5 to 123 °C

Enquiry: Please give the measured melting point for this compound: Cc1[nH]c2ccc(F)cc2c1C(C#N)c1c(C)[nH]c2ccc(F)cc12
Return: 183.4 to 188 °C

Enquiry: Please give the measured melting point for this compound: COC(=O)CNc1ccc(C(C#N)c2ccc(NCC(=O)OC)cc2)cc1
Return: 135.7 to 140.8 °C
